- Target Or System: Signal transducer and activator of transcription 3 (Homo sapiens) (UniProt P40763)
- Procedure Details: STAT3 activation reporter response, dose response, cell-based (AID 1398)
Calls of active or inactive are those of the source. No rule for the calls is given here.
Your reply should match one of these outcome classes. yes (active), no (inactive)

Example cases with answers are listed next.
Compound	Discrete Label
O=C(CN1CCNCC1)Nc1ccc(Oc2ccccc2)cc1	no
CC(C)CC(=O)NC(=S)Nc1nc(-c2ccccc2)cs1	yes
COC(=O)c1sccc1NC(=O)c1ccc(Br)s1	no
O=c1c2ccccc2ncn1Cc1ccco1	yes
CC1=C(C)C(=O)C(N2CCOCC2)=CC1=O	no

Would you mind telling me which call this test gave CCN1CCN(C(=O)c2cc3c(-c4ccc(Cl)cc4)nn(C)c3s2)CC1 ? no

Would you mind telling me which call this test gave COCCCNc1nc2c(-c3cccc(C(F)(F)F)c3)nnn2c2ccccc12 ? no

Would you mind telling me which call this test gave Cc1nc2ccccc2cc1O ? yes

Would you mind telling me which call this test gave O=C(Nc1nnc(-c2ccccc2Cl)o1)c1nc2ccccc2s1 ? no

Would you mind telling me which call this test gave O=C(c1cccnc1)N1CCc2ccccc21 ? yes

Would you mind telling me which call this test gave CCOc1cc(-c2ccc(N)c(OCC)c2)ccc1N ? no

Would you mind telling me which call this test gave CN(Cc1ccccc1)Cc1c[nH]c2ccccc12 ? no

====

- Target Or System: Signal transducer and activator of transcription 3 (Homo sapiens)
- Procedure Details: STAT3 activation reporter response, dose response, cell-based (AID 1398)
Active and inactive are the calls of the source. No rule for the calls is given here.
Your reply should match one of these outcome classes. active, inactive

Compound	Discrete Label
COc1ccccc1C(=O)NNC(=S)Nc1ccccc1	inactive
Cc1nc2c(n1C1CCCCC1)C(=O)c1ccccc1C2=O	active
CC1Cc2ccccc2N1Cc1cc(=O)n2ccsc2n1 (stereo unspecified)	inactive

Would you mind telling me which call this test gave COc1ccc(-c2nc3scc(-c4ccccc4)n3n2)cc1 ? active

Would you mind telling me which call this test gave COc1ccc(C2c3[nH]c4ccccc4c3CCN2C(=O)c2ccc(=O)n(C)n2)c(F)c1 (stereo unspecified) ? active

====

- Target Or System: Signal transducer and activator of transcription 3 (Homo sapiens) (UniProt P40763)
- Procedure Details: STAT3 activation reporter response, dose response, cell-based (AID 1398); call rule not given here
Your reply should match one of these outcome classes. t (active), f (inactive)

Would you mind telling me which call this test gave O=C(CCN1CCOCC1)N1CCc2c([nH]c3ccccc23)C1c1cccc(Cl)c1 (stereo not given) ? t

====

- Target Or System: Signal transducer and activator of transcription 3 (Homo sapiens)
- Procedure Details: STAT3 activation reporter response, dose response, cell-based (AID 1398)
Active and inactive are the calls of the source. No rule for the calls is given here.
Your reply should match one of these outcome classes. true (1) (active), false (0) (inactive)

Would you mind telling me which call this test gave O=C(Nc1ccccc1O)c1csc2c1CCCC2 ? true (1)

Would you mind telling me which call this test gave Cc1c(C#N)c2ccccc2n1CC(=O)O ? true (1)

Would you mind telling me which call this test gave O=C(O)C(Cc1c[nH]c2ccccc12)N1Cc2ccccc2C1=O (stereo unspecified) ? false (0)

Would you mind telling me which call this test gave CN1CCN(CCCNC(=O)c2cc3c(-c4ccc(Cl)cc4)nn(C)c3s2)CC1 ? true (1)

Would you mind telling me which call this test gave CC(C)CC1c2[nH]c3ccccc3c2CCN1C(=O)CCC(=O)N(C)C (stereo unspecified) ? false (0)

Would you mind telling me which call this test gave COC(=O)NNC(=O)c1ccccc1OC ? true (1)

Would you mind telling me which call this test gave CN1CCN(C(=O)CNc2ccc(C(F)(F)F)cc2[N+](=O)[O-])CC1 ? true (1)

Would you mind telling me which call this test gave COc1ccc(C2c3[nH]c4ccccc4c3CCN2C(=O)c2cc3ncccn3n2)c(F)c1 (stereo unspecified) ? true (1)

====

- Target Or System: Signal transducer and activator of transcription 3 (Homo sapiens) (UniProt P40763)
- Procedure Details: STAT3 activation reporter response, dose response, cell-based (AID 1398)
Active and inactive are the calls of the source. How the calls were made is not given here.
Your reply should match one of these outcome classes. active, inactive

Compound	Discrete Label
COc1ccc(-c2nnc(Nc3nc4c(OC)cccc4s3)o2)cc1	inactive
O=C(CCCSc1nc2ccccc2s1)NCc1ccco1	inactive

Would you mind telling me which call this test gave Cc1nc(/N=C(\N)Nc2ccccc2)nc2ccccc12 ? active

Would you mind telling me which call this test gave Cc1ccccc1C1c2[nH]c3ccccc3c2CCN1C(=O)c1ccc(=O)n(C)n1 (centres undefined) ? active

Would you mind telling me which call this test gave Cc1nnc(NC(=O)c2oc3c(ccc4ccccc43)c2C)s1 ? inactive

Would you mind telling me which call this test gave COc1ccc(C)cc1NC(=O)c1[nH]c(C)c(C(C)=O)c1C ? inactive

Would you mind telling me which call this test gave O=C(O)C1CC=CCC1C(=O)Nc1ccc(S(=O)(=O)N2CCCc3ccccc32)cc1 (centres undefined) ? active

Would you mind telling me which call this test gave COc1ccc(Cl)cc1-c1nc(-c2ccc(Br)o2)no1 ? active

Would you mind telling me which call this test gave COc1cccc2sc(Nc3nnc(-c4ccc(F)cc4)o3)nc12 ? inactive

Would you mind telling me which call this test gave CCn1c(C(=O)Nc2ccsc2C(=O)OC)cc2sc(Cl)cc21 ? inactive

Would you mind telling me which call this test gave COCCSc1ccccc1C(=O)NCCc1ccccc1 ? inactive

Would you mind telling me which call this test gave CCOc1ccccc1C1CC(c2cccs2)=NN1S(C)(=O)=O (centres undefined) ? inactive

Would you mind telling me which call this test gave CN(C)C(=O)COC(=O)/C=C/c1ccccc1[N+](=O)[O-] ? active

Would you mind telling me which call this test gave CC(=O)NCCC(=O)N1CCc2c([nH]c3ccccc23)C1c1cccc(Cl)c1 (centres undefined) ? inactive

Would you mind telling me which call this test gave Cc1nn(-c2ccc(Cl)cc2)c(N)c1C(O)(CSc1nccn1C)C(F)(F)F (centres undefined) ? inactive

====

- Target Or System: Signal transducer and activator of transcription 3 (Homo sapiens)
- Procedure Details: STAT3 activation reporter response, dose response, cell-based (AID 1398)
The source made the active and inactive calls. How the calls were made is not given here.
Your reply should match one of these outcome classes. true (1) = active, false (0) = inactive

Example cases with answers are listed next.
Compound	Discrete Label
COc1ccc(Cl)cc1NC(=O)Nc1ccc(Br)cn1	false (0)
O=C(COc1ccccc1Cl)Nc1cc(Cl)ccc1O	true (1)
CN(C)C(CN1C(=O)C2CC=CCC2C1=O)c1cn(C)c2ccccc12 (stereo not drawn)	false (0)
CCOc1ccc(CN2CCN(Cc3cc4ccccc4[nH]3)CC2CCO)cc1 (stereo not drawn)	true (1)
Cc1cc(C)n(-c2nnc3n2N=C(c2c[nH]c4ccccc24)CS3)n1	false (0)

Would you mind telling me which call this test gave CC(=O)N1N=C(c2ccccc2O)OC1(C)CC(=O)Nc1ccccc1 (stereo not drawn) ? false (0)

Would you mind telling me which call this test gave Nc1nnc(Cc2c[nH]c3ccccc23)s1 ? false (0)

Would you mind telling me which call this test gave Cc1cc(-c2ccc(Cl)cc2)c(C#N)c(N)n1 ? true (1)

Would you mind telling me which call this test gave COc1cc(NC(=O)c2cc(-c3ccco3)on2)c(OC)cc1Cl ? true (1)

Would you mind telling me which call this test gave CC1=NN(c2ccccc2)C(=O)/C1=C/c1c(O)[nH]c(=O)[nH]c1=O ? false (0)

Would you mind telling me which call this test gave CC1CCN(C(=O)Cn2c(=O)n(CCc3ccccc3)c(=O)c3ccccc32)CC1 ? false (0)

Would you mind telling me which call this test gave CCCNC(=O)Cn1c2ccccc2c2nc(=O)cc(C)n21 ? true (1)

Would you mind telling me which call this test gave CCCc1nnc(N2C(=O)c3cccc4cccc(c34)C2=O)s1 ? false (0)

Would you mind telling me which call this test gave COCCNC(=O)c1cc2c(-c3ccc(Cl)cc3)nn(C)c2s1 ? false (0)

Would you mind telling me which call this test gave CCOC(=O)c1sc(NCc2ccco2)c(-c2nc3ccccc3s2)c1N ? true (1)

Would you mind telling me which call this test gave COc1ccccc1C(=O)NNC(=O)c1ccc(NC(=O)C(C)C)cc1 ? true (1)

Would you mind telling me which call this test gave COc1ccc(S(=O)(=O)Nc2nc3ccccc3s2)cc1OC ? false (0)

Would you mind telling me which call this test gave COc1ccc(Br)cc1C(=O)Nc1cccc(C)c1 ? false (0)

====

- Target Or System: Signal transducer and activator of transcription 3 (Homo sapiens) (UniProt P40763)
- Procedure Details: STAT3 activation reporter response, dose response, cell-based (AID 1398)
The source made the active and inactive calls. How the calls were made is not given here.
Your reply should match one of these outcome classes. active, inactive

Example cases with answers are listed next.
Compound	Discrete Label
COc1ccccc1-c1nnc(SCC(=O)NC2CCCCC2)o1	active
CCC(C(=O)Nc1ccccc1OC)n1c(C(=O)OC)cc2ccsc21 (centres undefined)	active
COCc1cc(=O)n2c(-c3ccccc3OC)n[nH]c2n1	active
COc1ccc(Cl)cc1NC(=O)c1oc(C)nc1C	inactive
CC(OC(=O)c1cccnc1SCc1cc(=O)n2ccccc2n1)c1ccccn1 (centres undefined)	inactive

Now look at this one.
Would you mind telling me which call this test gave Cc1noc(/C=C/N(C)C)c1S(=O)(=O)N1CCc2ccccc21 ? inactive
